Target: T1, recombinant human PLVAP51-442 protein (extracellular domain, His tag removed by thrombin) (human, UniProt Q9BX97 51-442)
T1 construct: also called recombinant PLVAP protein; recombinant PLVAP
T1 sequence: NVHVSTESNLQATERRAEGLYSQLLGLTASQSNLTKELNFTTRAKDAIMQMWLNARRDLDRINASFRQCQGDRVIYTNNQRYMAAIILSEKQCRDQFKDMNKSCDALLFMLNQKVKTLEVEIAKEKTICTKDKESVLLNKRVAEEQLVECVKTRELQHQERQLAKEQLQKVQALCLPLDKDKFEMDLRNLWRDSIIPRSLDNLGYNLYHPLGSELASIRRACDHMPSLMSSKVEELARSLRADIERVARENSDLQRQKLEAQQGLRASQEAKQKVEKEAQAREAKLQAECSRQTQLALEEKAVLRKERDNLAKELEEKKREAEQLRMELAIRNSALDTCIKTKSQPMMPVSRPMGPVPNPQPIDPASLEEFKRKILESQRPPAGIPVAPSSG
Assay: competition ELISA on coated recombinant PLVAP; competitor biotinylated murine KFCC-GY5
Procedure: The binding of KFCC-GY4 and KFCC-GY5 human antibody variants to recombinant PLVAP was assessed in a competition ELISA. […] The binding of the biotinylated mAb was determined by detection with streptavidin-HRP and TMB substrate. After stopping the reaction with 3M HCl, absorbance was measured at 450 nm on a Dynex Technologies MRX TC II plate reader and the binding curves of the test antibodies compared against the mouse reference standard. […]
// reported IC50 (ratio compared to GY5 mAb) per item
Would you mind answering with just the numeric figure?

binder	IC50 (ratio compared to GY5 mAb)
humanized KFCC-GY5 antibody CSR02-VH4/VK2 (antibody, human IgG4, V domains shown, also called VH4/VK2 (GY5 variant); CSR02-VH4NK2) VH: QVQLVQSGSELKKPGASVKVSCKASGYTFTSNYINWVRQAPGQGLEWIGNIYPSDGFTNYNQKFKDRVTITVDKSTSTAYMELSSLRSEDTAVYYCTRNFDVWGQGTTVTVSS VL: DVVMTQSPLSLPVTLGQPASISCRSSQSLVHSNGNTYLQWYLQKPGQSPQLLIYTVSNRFSGVPDRFSGSGSGTDFTLKISRVEAEDVGVYFCSQSTHVPFTFGQGTKLEIKR	1.47

The recorded IC50 (ratio compared to GY5 mAb) for entry humanized KFCC-GY5 antibody CSR02-VH5/VK2 (antibody, human IgG4, V domains shown, also called VH5/VK2 (GY5 variant); CSR02-VH5NK2) VH: QVQLVQSGSELKKPGASVKVSCKASGYTFTSNYINWVRQAPGQGLEWMGNIYPSDGFTNYNQKFKDRVTITVDKSTSTAYMELSSLRSEDTAVYYCTRNFDVWGQGTTVTVSS VL: DVVMTQSPLSLPVTLGQPASISCRSSQSLVHSNGNTYLQWYLQKPGQSPQLLIYTVSNRFSGVPDRFSGSGSGTDFTLKISRVEAEDVGVYFCSQSTHVPFTFGQGTKLEIKR equals 1.58

The recorded IC50 (ratio compared to GY5 mAb) for entry humanized KFCC-GY5 antibody CSR02-VH5/VK3 (antibody, human IgG4, V domains shown, also called VH5/VK3 (GY5 variant); CSR02-VH5NK3) VH: QVQLVQSGSELKKPGASVKVSCKASGYTFTSNYINWVRQAPGQGLEWMGNIYPSDGFTNYNQKFKDRVTITVDKSTSTAYMELSSLRSEDTAVYYCTRNFDVWGQGTTVTVSS VL: DVVMTQSPLSLPVTLGQPASISCRSSQSLVHSNGNTYLQWYLQKPGQSPQLLIYTVSNRFSGVPDRFSGSGSGPDFTLKISRVEAEDVGVYYCSQSTHVPFTFGQGTKLEIKR equals 1.08

The recorded IC50 (ratio compared to GY5 mAb) for entry KFCC-GY5 monoclonal antibody (murine, hybridoma ATCC PTA-9964) (antibody, mouse IgG1, V domains shown, also called GY5 mAB; KFCC-GY5 mAb) VH: QVQLQQPGAELVRPGASVKLSCKASGYTFTSNYINWVKQRPGQGLEWIGNIYPSDGFTNYNQKFKDRATLTVDKSSSTAYMQLSSPTSEDSAVYYCTRNFDVWGAGTTVTVSS VL: DVVMTQTPLSLPVSLGDQASISCRSSQSLVHSNGNTYLQWYLQKPGQSPKLLIYTVSNRFSGVPDRFSGSGSGPDFTLKISRVEAEDLGVYFCSQSTHVPFTFGSGTKLEIK equals 1
